Assay: Ocular tissue and plasma pharmacokinetics, 15 mg/kg single and BID oral, Dutch Belted rabbits (Example 3/5)
Format: in vivo
Conditions: Dutch Belted, rabbit, vitreous humor, po, 15 mg/kg, DB rabbit, 15 mg/kg single oral dose, Day 1, 1 h; read-out: Mean Vitreous Humor concentration
Reported Property: concentration at 1 h

concentration at 1 h for CC(=O)c1nn(CC(=O)N2C[C@H](F)C[C@H]2C(=O)Nc2cccc(Br)n2)c2ccc(-c3cnc(C)nc3)cc12 [Compound 1] ?
7.26 ng/mL

====

Assay: Ocular tissue distribution and pharmacokinetics, 7.5 and 15 mg/kg oral, pigmented Dutch Belted rabbits (Example 7)
Format: in vivo
Conditions: Dutch Belted, rabbit, choroid-RPE, oral, […], DB rabbits, Day 1, […] single dose, 168 hr; read-out: Mean Choroid-RPE Concentration
Reported Property: concentration at 168 h (ng/g)
Numeric only. Scale: ng/g

concentration at 168 h for CC(=O)c1nn(CC(=O)N2C[C@H](F)C[C@H]2C(=O)Nc2cccc(Br)n2)c2ccc(-c3cnc(C)nc3)cc12 [Compound 1] ?
19.4

====

Experiment: Ocular tissue distribution and pharmacokinetics, 15 mg/kg BID oral, nonpigmented New Zealand White rabbits (Example 7)
Assay type: in vivo
Settings: New Zealand White, rabbit, plasma, oral; NZW rabbits, Day 15, 15 mg/kg BID, 0 hr; read-out: Mean Plasma Concentration
Reported Property: concentration at 0 h (ng/mL)
Numeric only. Scale: ng/mL

concentration at 0 h for CC(=O)c1nn(CC(=O)N2C[C@H](F)C[C@H]2C(=O)Nc2cccc(Br)n2)c2ccc(-c3cnc(C)nc3)cc12 ?
53.8

====

Assay: Ocular tissue and plasma pharmacokinetics, 15 mg/kg oral, New Zealand White rabbits (Example 3/5)
Format: in vivo
Settings: New Zealand White, rabbit, choroid-RPE, oral; NZW rabbits, Day 1, 15 mg/kg single dose, 24 hr; read-out: Mean Choroid-RPE Concentration
Reported Property: concentration at 24 h
Note: a bare number is incomplete; add the unit.

concentration at 24 h for CC(=O)c1nn(CC(=O)N2C[C@H](F)C[C@H]2C(=O)Nc2cccc(Br)n2)c2ccc(-c3cnc(C)nc3)cc12 ?
15.1 ng/g

====

Assay: Ocular tissue and plasma pharmacokinetics, 50 mg/kg BID oral, Dutch Belted rabbits (Example 4/5)
Format: in vivo
Conditions: male, Dutch Belted, rabbit, retina, oral, 50 mg/kg, DB rabbits, Day 15, 50 mg/kg BID, 1 hr; read-out: Mean Retina Concentration
Reported Property: concentration at 1 h (ng/g)
Numeric only. Scale: ng/g

concentration at 1 h for CC(=O)c1nn(CC(=O)N2C[C@H](F)C[C@H]2C(=O)Nc2cccc(Br)n2)c2ccc(-c3cnc(C)nc3)cc12 ?
2120

====

Assay: Ocular tissue distribution and pharmacokinetics, 7.5 and 15 mg/kg oral, pigmented Dutch Belted rabbits (Example 7)
Assay type: in vivo
Conditions: male, Dutch Belted, rabbit, choroid-RPE (choroid-retinal pigment epithelium), po, […], Choroid-RPE (OU), male DB rabbits, Group 1, Day 1, […] single oral dose
Reported Property: Cmax (ng/g)
Numeric only. Scale: ng/g

Cmax for CC(=O)c1nn(CC(=O)N2C[C@H](F)C[C@H]2C(=O)Nc2cccc(Br)n2)c2ccc(-c3cnc(C)nc3)cc12 ?
726

====

Test: Ocular tissue distribution and pharmacokinetics, 15 mg/kg BID oral, nonpigmented New Zealand White rabbits (Example 7)
Type: in vivo
Conditions: New Zealand White, rabbit, choroid-RPE, oral; NZW rabbits, Day 15, 15 mg/kg BID, 24 hr; read-out: Mean Choroid-RPE Concentration
Reported Property: concentration at 24 h (ng/g)
Numeric only. Scale: ng/g

concentration at 24 h for CC(=O)c1nn(CC(=O)N2C[C@H](F)C[C@H]2C(=O)Nc2cccc(Br)n2)c2ccc(-c3cnc(C)nc3)cc12 [Compound 1] ?
14.9
